Molecular target: T1, chimeric C10orf54: first half of IgV mouse and remainder (including loop) human (construct CC8) (human/mouse chimera, UniProt Q9H7M9 33-311)
T1 construct: also called C10orf54 Construct 8; mmabChsC10
T1 chain: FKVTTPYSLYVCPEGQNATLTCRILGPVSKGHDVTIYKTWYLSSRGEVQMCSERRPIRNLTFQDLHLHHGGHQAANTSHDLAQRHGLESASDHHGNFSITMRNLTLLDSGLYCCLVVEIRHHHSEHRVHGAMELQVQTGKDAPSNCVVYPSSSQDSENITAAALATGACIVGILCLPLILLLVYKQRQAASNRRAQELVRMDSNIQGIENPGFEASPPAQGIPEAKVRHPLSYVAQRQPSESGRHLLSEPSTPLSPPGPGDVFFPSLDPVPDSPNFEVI
Experiment: flow cytometry, transfected 293t cells, 2 ug/ml; stain = MFI >=20-fold over isotype control
Attribute Measured: binding result

Examples with answers:
Input: Fill blank: measured binding result of the binder murine monoclonal antibody 124A (antibody, V domains shown, Mouse hybridoma antibody) VH: QVQLQQSGAELMKPGASVKISCKATGYTFSSNWIEWVKQRPGHGLEWMGEILPGSGSTSYNEKFKGKATFTADTSSNTAYMQLSSLTSEDSAVYYCARWLLYYYAMDFWGQGTSVTVSS VL: DVLMTQTPLSLPVSLGDQASISCRSSQSIVHNNGNTYLEWYLQKPGQSPKLLIYKVSNRFSGVPDRFSGSGSGTDFTLKISRVEAEDLGVYYCFQGSHVPYTFGGGTKLEIK is ____.
Output: binds

Input: Fill blank: measured binding result of the binder murine monoclonal antibody 141A (antibody, V domains shown, Mouse hybridoma antibody) VH: QVQLQQSGAELMKPGASVKISCKATGYTFSRYWIEWVKQRPGHGLEWIGEILPGSGSTNYNEKFKGKATFTADTSSNTAYMQLSSLTSEDSAVYYCAGEEVYDGYPWFGYWGQGTLVTVSA VL: QIVLSQSPAILSASPGEKVTMTCRASSSLSYMHWYQQKPGSSPKPWIYATSNLASGVPARFSGSGSGTSYSLTISRVEAEDAATYYCQQWSSNPYTFGGGTKLEIK is ____.
Output: binds

Input: Fill blank: measured binding result of the binder murine monoclonal antibody 215A (antibody, V domains shown, Mouse hybridoma antibody) VH: EVQLQQSGPELVKPGASMKISCKASGFSFTGYTMNWVKQSHGKNLEWIGLISPYNGGTSYNQKFKGKATLTVDKSSSTAYMELLSLTSEDSAVYYCARRAYGYAMDYWGQGTSVTVSS VL: QIVLTQSPAIMSASPGEKVTMTCSASSSVSYMFWYQQKPGSSPRLLIYDTSNLASGVPLRFSGSGSGTSYSLTISRMEAEDAATYYCQQWSSYPFTFGSGTKLEIK is ____.
Output: binds

Input: Fill blank: measured binding result of the binder murine monoclonal antibody 259A (antibody, V domains shown, Mouse hybridoma antibody) VH: EVQLQQSGPELVKPGASVKMSCKASGYTFTSYFMHWVKQKPGQGLEWIGYIYPYNDGTKYNEKFKGKATLTSDKSSSTAYMDLSSLTSEDSAVYYCARFDYDTLRYWGQGTTLTVSS VL: DVVLTQTPLSLPVNIGDQASISCKSTKSLLNSDGFTYLDWYLQKPGQSPQLLIYLISNRFSGVPDRFSGSGSGTDFTLKISRVEAEDLGVYYCFQSNYFPWTFGGGTKLEIK is ____.
Output: binds

Input: Fill blank: measured binding result of the binder murine monoclonal antibody 208A (antibody, V domains shown, Mouse hybridoma antibody) VH: QVQLQQSGAELVRPGVSVKISCKGSGYTFTDYGMHWVKQSHAKSLEWIGVIDTYYGDAGYNQKFKGKATMTVDKSSSTAYMELARLTSEDSAIYYCARRAGNAMDYWGQGTSVTVSS VL: SIVMTQTPKFLLVSAGDRVTITCKASQSVSNDVAWYQQKPGQSPKLLIYYASNRYTGVPDRFTGSGYGTDFTFTISTVQAEDLAVYFCQQDYSSPRTFGGGTKLEIK is ____.
Output: binds

Input: Fill blank: measured binding result of the binder murine monoclonal antibody 39A (antibody, V domains shown, Mouse hybridoma antibody) VH: QVQLQQSGAELMKPGASVKISCKATGYTFSSNWIEWVKQRPGHGLEWIGEILPGSGSTSYNEKFKGKATFTADTSSNTAYMQLSSLTSEDSAVYYCARWLLYYYAMDYWGQGTSVTVSS VL: DVLMTQTPLSLPVSLGDPASISCRSSQSIVHNNGNTYLEWYLQKPGQSPKLLIYKVSNRFSGVPDRFSGSGSGTDFTLKISRVEAEDLGVYYCFQGSHVPYTFGGGTKLEIK is ____.
Output: binds

Input: Fill blank: measured binding result of the binder murine monoclonal antibody 5B (antibody, V domains shown, Mouse hybridoma antibody) VH: QVQLQQSGAELVRPGVSVKISCKGSGYTFTDYGMHWVKQSHAKSLEWIGIIDTYYGDATYNQKFKGKATMTVDKSSSTAYMELARLTSEDSAIYYCARRAGNAMDYWGQGTSVTVSS VL: NIVMTQTPKFLLVSAGDRVTITCKASQSVSNDVAWYQQKPGQSPKLLIYYASNRYTGVPDRFTGSGYGTDFTFTISTVQAEDLAVYFCQQDYSSPRTFGGGTKLEIK is ____.
Output: binds

Input: Fill blank: measured binding result of the binder murine monoclonal antibody 53A (antibody, V domains shown, Mouse hybridoma antibody) VH: EVQLQQSGPELVKPGASVKMSCKASGYTFTSYFMHWVKQKPGQGLEWIGYIYPYNDGTKYNEKFKGKATLTSDKSSSTAYMELSSLTSEDSAVYYCARFDYDTLRYWGQGTTLTVSS VL: DVVLTQTPLSLPVNIGDQASISCKSTKSLLNSDGFTYLDWYLQKPGQSPQLLIYLVSNRFSGVPDRFSGSGSGTDFTLKISRVEAEDLGVYYCFQSNYFPWTFGGGTKLEIK is ____.
Output: binds

***
Input: Fill blank: measured binding result of the binder murine monoclonal antibody 46A (antibody, V domains shown, Mouse hybridoma antibody) VH: QVQLQQAGGELVRPGVSVKISCKGSGYTFTDYGMHWVKQSHAKSLEWIGIINTYYGDATYNQKFKGKATMTVDKSSSTAYMELARLTSEDSAIYYCARRAGTAMDYWGQGTSVTVSS VL: SIVMTQTPKFLLVSAGDRVTITCKASQSVSNDVAWYQQKPGQSPKLLIYYASNRYTGVPDRFTGSGYGTDFTFTISTVQAEDLAVYFCQQDYGSPRTFGGGTKLEIK is ____.
Output: binds

Input: Fill blank: measured binding result of the binder murine monoclonal antibody 33A (antibody, V domains shown, Mouse hybridoma antibody) VH: QVQLQQSGAELMKPGASVKISCKATGYTFSSYWIEWVKQRPGHGLEWIGEILPGSGSTSYNEKFKGKATFTADTSSNTAYMQLSGLTSEDSAVYYCARWLLYYYAMVYWGQGTSVTVSS VL: DVLMTQTPLSLPVSLGDQASISCRSSQSIVHSNGNTYLEWYLQKPGQSPKLLIYKVSNRFSGVPDRFSGSGSGTDFTLKISRVEAEDLGVYYCFQGSHVPYTFGGGTKLEIK is ____.
Output: binds
